# assayed target: human RORγt ligand binding domain (RORγt LBD) (Homo sapiens (Human))
measurement label: Kd (nM)

Would you please look over these solved cases?
[2H]C([2H])([2H])Oc1cc(CCC(F)(F)F)ccc1-n1c(CC)nc(C(=O)NC[C@H]2CC[C@H](S(C)(=O)=O)CC2)c1C#N [Example 29]; 15
CCc1nc(C(=O)NC[C@H]2CC[C@H](S(C)(=O)=O)C[C@@H]2O)c(Cl)n1-c1ncc(CC(C(F)(F)F)C(F)(F)F)cc1OC(F)F (stereo in doubt) [Example 64]; 35
CCc1nc(C(=O)NC[C@H]2CC[C@H](S(C)(=O)=O)CC2)cn1-c1cnc(CCC(F)(F)F)cc1OC [Example 116]; 5000

1. CCc1nc(C(=O)NC[C@]2(O)CC[C@@H](S(C)(=O)=O)CC2)c(F)n1-c1ccc(CCC(F)(F)F)cc1OC [Example 14]
2. CCc1nc(C(=O)NC[C@H]2CC[C@H](S(C)(=O)=O)CC2)c(Cl)n1-c1ccc(CC(C)(C)C(F)(F)F)cc1F [Example 101]
Which value of Kd is greater, the one for 1 or the one for 2 ? Pick one and reply with its label. 1
(1: 83 nM, 2: 4 nM)

P. CCc1nc(C(=O)NC[C@H]2CC[C@H](S(C)(=O)=O)CC2)c(C(N)=O)n1-c1ccc(CCC(F)(F)F)cc1F [Example 94]
Q. [2H]C([2H])([2H])Oc1cc(CC(C)(C)C(F)(F)F)ccc1-n1c(CC)nc(C(=O)NC[C@H]2CC[C@H](S(C)(=O)=O)CC2)c1C#N [Example 27]
R. CCc1nc(C(=O)NC[C@]2(C#N)CC[C@@H](S(C)(=O)=O)CC2)c(C)n1-c1ncc(CC(C)(C)C(F)(F)F)cc1OC [Example 128]
List the 3 entries from lowest Kd to highest Kd value. I'd appreciate it if you listed the labels in the requested order. Q, R, P

====

# assayed target: full-length human RORγt (Homo sapiens (Human), UniProt P51449)
# Sequence (P51449 other isoform, or with tags, fused parts or gaps): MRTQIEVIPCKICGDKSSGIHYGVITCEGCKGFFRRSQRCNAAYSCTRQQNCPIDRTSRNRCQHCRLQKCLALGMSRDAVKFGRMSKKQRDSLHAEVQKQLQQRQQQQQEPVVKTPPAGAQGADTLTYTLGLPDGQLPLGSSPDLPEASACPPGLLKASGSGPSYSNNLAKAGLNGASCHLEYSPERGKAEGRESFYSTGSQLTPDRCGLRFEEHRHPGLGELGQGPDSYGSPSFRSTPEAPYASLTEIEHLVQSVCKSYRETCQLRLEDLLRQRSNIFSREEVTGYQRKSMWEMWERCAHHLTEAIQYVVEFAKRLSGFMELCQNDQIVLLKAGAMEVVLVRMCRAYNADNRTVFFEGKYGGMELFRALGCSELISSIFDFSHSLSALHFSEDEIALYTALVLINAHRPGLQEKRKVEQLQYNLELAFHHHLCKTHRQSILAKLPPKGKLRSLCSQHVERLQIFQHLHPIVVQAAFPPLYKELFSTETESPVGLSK
# assay name: RORγt (full-length human) reporter assay, conditions A or B
# Type: cell-based
# cond: 3 μM compound concentration (*); read-out: RORγt (FL) Reporter Assay A or B, % inhibition
measurement label: inhibition at 3 µM (%)

Cc1nc(C(=O)NC[C@]2(O)CC[C@@H](S(C)(=O)=O)CC2)cn1-c1ccc(CC(C)(C)C(F)(F)F)cc1OC(F)F; 87
Cc1nc(C(=O)NC[C@H]2CC[C@H](S(C)(=O)=O)CC2)cn1-c1ccc(CC(C)(C)C(F)(F)F)cc1OC(F)F; 73
Cc1nc(C(=O)NC[C@H]2CC[C@H](S(C)(=O)=O)CC2)c(Cl)n1-c1ncc(CC(C)(C)C(F)(F)F)cc1OC(F)F; 72

====

# assayed target: full-length human RORγt (Homo sapiens (Human))
# assay name: RORγt (full-length human) reporter assay, conditions A or B
# Assay type: cell-based
# cond: 2 μM compound concentration (**); read-out: RORγt (FL) Reporter Assay A or B, % inhibition
measurement label: inhibition at 2 µM (%)

CCc1nc(C(=O)NC[C@H]2CC[C@H](S(C)(=O)=O)CC2)c(C#N)n1-c1ccc(CC(C)(C)C(F)(F)F)cc1OC(F)F; 101
CCc1nc(C(=O)NC[C@]2(O)CC[C@@H](S(C)(=O)=O)CC2)c(C#N)n1-c1ccc(CC(C)C(F)(F)F)cc1OC (stereo partly drawn); 103
CCc1nc(C(=O)NC[C@]2(O)CC[C@@H](S(C)(=O)=O)CC2)c(Cl)n1-c1ccc(CC(C)C)cc1OC; 67

====

# assayed target: human RORγt ligand binding domain (RORγt LBD) (Homo sapiens (Human), UniProt P51449)
# Sequence (P51449 other isoform, or with tags, fused parts or gaps): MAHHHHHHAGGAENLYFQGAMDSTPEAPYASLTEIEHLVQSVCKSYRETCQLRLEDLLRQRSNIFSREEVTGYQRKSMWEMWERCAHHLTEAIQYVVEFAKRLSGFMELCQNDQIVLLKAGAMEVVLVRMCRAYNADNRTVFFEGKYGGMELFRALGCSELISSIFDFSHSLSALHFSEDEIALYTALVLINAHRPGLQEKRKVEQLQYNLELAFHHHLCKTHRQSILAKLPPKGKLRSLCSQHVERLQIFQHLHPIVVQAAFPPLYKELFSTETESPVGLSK
# assay name: RORγt ThermoFluor assay
# Description: […] Bar-coded assay plates are robotically loaded onto a thermostatically controlled PCR-type thermal block and then heated at a typical ramp-rate of 1° C./min for all experiments. Fluorescence was measured by continuous illumination with UV light (Hamamatsu LC6) supplied via fiber optic and filtered through a band-pass filter (380-400 nm; >6 OD cutoff). […] Images were collected at each temperature, and the sum of the pixel intensity in a given area of the assay plate was recorded versus temperature. […]
pKd: −log10 of the molar value.
measurement label: pKd

Would you please look over these solved cases?
CCc1nc(C(=O)NC[C@H]2CC[C@H](S(C)(=O)=O)CC2)c(Cl)n1-c1c(F)cc(C[C@H](C)C(F)(F)F)cc1F (single isomer, unassigned) [Example 86]; 8.28
CCc1nc(C(=O)NC[C@]2(O)CC[C@@H](S(C)(=O)=O)CC2)c(Cl)n1-c1ccc(CC(C)C)cc1OC (single isomer, unassigned) [Example 91]; 6.21
CCc1nc(C(=O)NC[C@H]2CC[C@H](S(C)(=O)=O)CC2)c(Cl)n1-c1c(F)cc(C[C@@H](C)C(F)(F)F)cc1F (single isomer, unassigned) [Example 87]; 8.42
CCc1nc(C(=O)NC[C@@H]2CC[C@@H](S(C)(=O)=O)C[C@H]2O)c(Cl)n1-c1ncc(CC(C)(C)C(F)(F)F)cc1OC(F)F (single isomer, unassigned) [Example 59]; 7.92

1. CCc1nc(C(=O)NC[C@H]2CC[C@H](S(C)(=O)=O)CC2)cn1-c1ccc(C[C@H](C)C(F)(F)F)cc1OC (single isomer, unassigned) [Example 20]
2. CCc1nc(C(=O)NC[C@H]2CC[C@H](S(C)(=O)=O)CC2)c(C#N)n1-c1ncc(CCC(F)(F)F)cc1OC [Example 119]
Hey, between 1 and 2 which has a smaller measured pKd? Pick one and reply with its label. 2

====

# assayed target: full-length human RORγt (Homo sapiens (Human))
# assay name: RORγt (full-length human) reporter assay, conditions A or B
# Assay type: cell-based
# cond: 0.67 μM compound concentration (****); read-out: RORγt (FL) Reporter Assay A or B, % inhibition
measurement label: inhibition at 0.67 µM (%)

Would you please look over these solved cases?
[2H]C([2H])([2H])Oc1cc(CC(C)(C)C(F)(F)F)ccc1-n1c(CC)nc(C(=O)NC[C@H]2CC[C@H](S(C)(=O)=O)CC2)c1C#N; 97
CCc1nc(C(=O)NC[C@]2(O)CC[C@@H](S(C)(=O)=O)CC2)c(Cl)n1-c1ccc(CC(C)(C)C(F)(F)F)c(OC)c1; 86
CCc1nc(C(=O)NC[C@]2(O)CC[C@@H](S(C)(=O)=O)CC2)c(Cl)n1-c1ccc(CC(C)(C)C(F)(F)F)cc1F; 74
CCc1nc(C(=O)NC[C@]2(C#N)CC[C@@H](S(C)(=O)=O)CC2)c(F)n1-c1ccc(CC(C)(C)C(F)(F)F)cc1OC(F)F; 97
C#Cc1c(C(=O)NC[C@H]2CC[C@H](S(C)(=O)=O)CC2)nc(CC)n1-c1ccc(CC(C)(C)C(F)(F)F)cc1OC(F)F; 106
[2H]C([2H])([2H])Oc1cc(CC(C)(C)C(F)(F)F)ccc1-n1c(CC)nc(C(=O)NC[C@H]2CC[C@H](S(C)(=O)=O)CC2)c1F; 94
CCc1nc(C(=O)NC[C@H]2CC[C@H](S(C)(=O)=O)CC2)c(Cl)n1-c1ccc(CC(C)C)cc1OC; 66
CCc1nc(C(=O)NC[C@]2(O)CC[C@@H](S(C)(=O)=O)CC2)c(C)n1-c1ccc(CC(C(F)(F)F)C(F)(F)F)cc1F; 97

a. C#Cc1c(C(=O)NC[C@]2(C#N)CC[C@@H](S(C)(=O)=O)CC2)nc(CC)n1-c1ccc(CC(C)(C)C(F)(F)F)cc1OC(F)F
b. CCc1nc(C(=O)NC[C@H]2CC[C@H](S(C)(=O)=O)CC2)c(Cl)n1-c1ccc(CCCC(F)(F)F)cc1F
Hey, between a and b which has a smaller measured inhibition at 0.67 µM? Pick one and reply with its label. b

====

# assayed target: full-length human RORγt (Homo sapiens (Human))
# assay name: RORγt (full-length human) reporter assay, conditions A or B
# Format: cell-based
# cond: 3 μM compound concentration (*); read-out: RORγt (FL) Reporter Assay A or B, % inhibition
measurement label: inhibition at 3 µM (%)

CCc1nc(C(=O)NC[C@@]2(O)CC[C@H](S(C)(=O)=O)C[C@@H]2O)c(Cl)n1-c1ncc(CC(C)(C)C(F)(F)F)cc1OC(F)F (stereo in doubt) [Example 61]; 90
CCc1nc(C(=O)NC[C@H]2CC[C@H](S(C)(=O)=O)CC2)c(Cl)n1-c1ncc(CC(C(F)(F)F)C(F)(F)F)cc1OC(F)F [Example 63]; 95
CCc1nc(C(=O)NC[C@]2(O)CC[C@@H](S(C)(=O)=O)CC2)c(Cl)n1-c1ncc(C[C@@H](C)C(F)(F)F)cc1OC(F)F (single isomer, unassigned) [Example 79]; 84
CCc1nc(C(=O)NC[C@]2(O)CC[C@@H](S(C)(=O)=O)C[C@H]2O)c(Cl)n1-c1ncc(CC(C)(C)C(F)(F)F)cc1OC(F)F (stereo in doubt) [Example 60]; 86
Cc1nc(C(=O)NC[C@@H]2CC[C@@H](S(C)(=O)=O)C[C@H]2O)c(C#N)n1-c1ccc(CC(C)(C)C(F)(F)F)cc1OC(F)F (racemic) [Example 55]; 93
CCc1nc(C(=O)NC[C@]2(O)CC[C@@H](S(C)(=O)=O)CC2)c(Cl)n1-c1ncc(CC(C(F)(F)F)C(F)(F)F)cc1OC(F)F [Example 62]; 100
CCc1nc(C(=O)NC[C@]2(O)CC[C@@H](S(C)(=O)=O)CC2)c(Cl)n1-c1ncc(CC(C)(C)CC(F)(F)F)cc1OC(F)F [Example 107]; 85
CCc1nc(C(=O)NC[C@H]2CC[C@H](S(C)(=O)=O)CC2)c(Cl)n1-c1ncc(C[C@H](C)C(F)(F)F)cc1OC(F)F (single isomer, unassigned) [Example 72]; 98
CCc1cc(CC(C)(C)C(F)(F)F)cnc1-n1c(CC)nc(C(=O)NC[C@H]2CC[C@H](S(C)(=O)=O)CC2)c1Cl [Example 75]; 110
CCc1nc(C(=O)NC[C@@H]2CC[C@@H](S(C)(=O)=O)C[C@H]2O)c(Cl)n1-c1ncc(CC(C(F)(F)F)C(F)(F)F)cc1OC(F)F (stereo in doubt) [Example 65]; 105
CCc1nc(C(=O)NC[C@H]2CC[C@H](S(C)(=O)=O)CC2)c(C)n1-c1ncc(CC(C(F)(F)F)C(F)(F)F)cc1OC(F)F [Example 77]; 101
CCc1nc(C(=O)NC[C@H]2CC[C@H](S(C)(=O)=O)CC2)c(Cl)n1-c1ncc(CC(C)(C)C(F)(F)F)cc1C [Example 74]; 116
CCc1nc(C(=O)NC[C@]2(O)CC[C@@H](S(C)(=O)=O)CC2)c(Cl)n1-c1ncc(C[C@H](C)C(F)(F)F)cc1OC(F)F (single isomer, unassigned) [Example 71]; 90
CCc1nc(C(=O)NC[C@H]2CC[C@H](S(N)(=O)=O)CC2)c(Cl)n1-c1ncc(CC(C)(C)C(F)(F)F)cc1OC(F)F [Example 69]; 102
CCc1nc(C(=O)NC[C@]2(O)CC[C@@H](S(C)(=O)=O)CC2)c(C)n1-c1ncc(CC(C(F)(F)F)C(F)(F)F)cc1OC(F)F [Example 76]; 76
CCc1nc(C(=O)NC[C@H]2CC[C@H](S(C)(=O)=O)CC2)c(C)n1-c1ncc(C[C@@H](C)C(F)(F)F)cc1OC(F)F (single isomer, unassigned) [Example 80]; 113
CCc1nc(C(=O)NC[C@H]2CC[C@H](S(C)(=O)=O)C[C@@H]2O)c(Cl)n1-c1ncc(CC(C(F)(F)F)C(F)(F)F)cc1OC(F)F (stereo in doubt) [Example 64]; 101
